# protocol: solvent given as SMILES
# measurement.setup: in CC#N
Mark t for reported fluorescence lifetime of 4 ns or greater; mark f for anything smaller.

Cc1cc(-c2ccccc2C)cc(C)[o+]1 t
C(=C\c1c2ccccc2cc2ccccc12)/c1ccc2ccccc2c1 f
CN(C)c1ccc(/C=C2\CC/C(=C\c3ccc(N(C)C)cc3)C2=O)cc1 f
C(=C\c1c2ccccc2cc2ccccc12)/c1ccccc1 t
Cn1nc(-c2ccccc2)c2nc3cc(F)ccc3nc21 t
Cc1cc(=O)c2ccc(N)cc2o1 f
CC(=O)Nc1ccc2c3c(cccc13)C(=O)c1ccccc1-2 t

====

# protocol: solvent given as SMILES
# measurement.setup: in CC#N
Parameter: fluorescence lifetime. Scope: all listed entries.
reported.endpoint: fluorescence lifetime (ns)

compound	result.value
COc1c2ccccc2c(OC)c2c1c1cccc(OC)c1n2C	26.7
CCN1C(=O)C(C2C(=O)c3c4ccccc4cc4cc5ccccc5c2c34)SC1=S (stereo unspecified)	7.8
CCN(CC)c1ccc2cc3ccc(=[N+](CC)CC)cc-3oc2c1	4.18
CCOC(=O)c1ccccc1-c1c2ccc(=O)cc-2oc2cc(OC(=O)[C@H](CSCc3ccc(C)cc3)NC(=O)OC(C)(C)C)ccc12	2.97
COc1cc(-c2cc(-c3ccc(C)cc3)nc3c(C#N)c(N4CCCC4)nc(N)c23)cc(OC)c1OC	10.7
CCCn1c2cccc3oc4cccc5c4[c+](c32)c2c1cccc2n5CCC	19.4
N#C/C(=C\c1ccc(C#N)cc1)c1nc(-c2ccccc2)c(-c2ccccc2)s1	3.2
COc1ccc(/C=C/C2=[O+][B-](F)(F)OC(/C=C/c3ccc(OC)c4ccccc34)=C2c2ccccc2)c2ccccc12	0.63
CC(C)(C)OC(=O)NC(Cc1ccc2oc(-c3ccccn3)nc2c1)C(=O)O (stereo unspecified)	1.92
c1ccc2c(c1)cc(-c1cc(-c3nccs3)nc(-c3nccs3)c1)c1ccccc12	1.94
N#Cc1cc2ccccc2[nH]1	0.9
Cc1ccc(-c2ccc(/C=C/c3cccn3C)cn2)nc1	0.51
Cc1ccc(-c2ccc(/C=C/c3ccccc3)cn2)nc1	1.06
COc1ccc(-c2csc(/C(C#N)=C/c3ccc(Cl)cc3)n2)cc1	3.61
Cc1cc(C)n2c1C=C1c3ccccc3C(c3ccc[nH]3)=[N+]1[B-]2(F)F	7.41
CCC1(CC)c2cc(B(c3c(C)cc(C)cc3C)c3c(C)cc(C)cc3C)ccc2-c2ccc(N(c3ccccc3)c3ccccc3)cc21	3.5
Fc1nc(F)c(F)c(C#Cc2ccccc2C#Cc2c(F)c(F)nc(F)c2F)c1F	1.81
CCN(CC)c1ccc2c(C(F)(F)F)cc(=O)oc2c1	0.6
N#Cc1c[nH]c2ccccc12	1.8
Nc1ccc2c(c1)-c1ccccc1C2=O	5.9
Cc1cc(-c2ccc(C(C)(C)C)cc2)cc(C)[o+]1	8

====

# protocol: solvent given as SMILES
# measurement.setup: in CC#N

compound	fluorescence lifetime / ns
COc1ccc(-c2nc(/C(C#N)=C/c3ccc(C#N)cc3)sc2-c2ccc(OC)cc2)cc1	2.9
F[B-]1(F)n2c(-c3ccccc3)cc(-c3ccccc3)c2N=C2C(c3ccccc3)=CC(c3ccccc3)=[N+]21	0.78
COc1ccc(-c2csc(/C(C#N)=C/c3ccncc3)n2)cc1	1.92
COc1cc(N(c2ccccc2)c2ccc(C=C(C#N)C#N)c(OC)c2)ccc1C=C(C#N)C#N	0.026
C=CC12N=N[C@](C=C)(C3C4CCC(C4)C31)C1[C@@H]3CC[C@@H](C3)[C@H]12 (stereo not given in full)	268
CC1(C)CC(NCc2ccc3ccc4cccc5ccc2c3c45)CC(C)(C)N1	26.2
Cc1cc(=O)[nH]c(=O)[nH]1	0.0001
COc1cccc(-[c+]2c3ccccc3oc3ccccc32)c1	0.028
CN(C)c1ccc(C2=Cc3cc(Cl)nc[n+]3[B-](F)(F)O2)cc1	0.3
C#CCN1C(=O)/C(=C/c2cc(OC(C)C)ccc2OC(C)C)N=C1C	2.22
